# Tested System: human glutathione transferase-tagged FXR-LBD (Homo sapiens, UniProt Q96RI1)
# Construct: human glutathione transferase-tagged FXR-LBD (Life Technologies, USA); purchased Life Technologies, USA
# Sequence (Q96RI1 262-486 limits assumed): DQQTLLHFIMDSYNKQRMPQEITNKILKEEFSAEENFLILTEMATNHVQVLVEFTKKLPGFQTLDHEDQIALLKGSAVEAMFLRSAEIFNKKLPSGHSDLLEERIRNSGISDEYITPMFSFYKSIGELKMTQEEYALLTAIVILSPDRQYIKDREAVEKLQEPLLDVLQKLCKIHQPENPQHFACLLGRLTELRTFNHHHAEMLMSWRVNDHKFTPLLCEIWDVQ
# Test Details: FXR AlphaScreen coactivator recruitment assay (human);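 for hFXR Efficacy: CDCA at 50 µM taken as 100%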
# Type: biochemical
# Set-up: dose or concentration left out as unconfirmed
# Condition Context: read-out: hFXR Efficacy
Measure: Emax (%)
Answers are plain numbers, in %.

Example cases with answers are listed next.
CC[C@H]1[C@@H](O)C2C3CC[C@H]([C@H](C)CCc4nnc(NS(C)(=O)=O)o4)[C@@]3(C)CCC2[C@@]2(C)CC[C@@H](O)C[C@@H]12 (stereo partly drawn) : 175
CC[C@H]1[C@@H](O)C2C3CC[C@H]([C@H](C)CC(F)(F)C(=O)O)[C@@]3(C)CCC2[C@@]2(C)CC[C@@H](O)C[C@@H]12 (stereo partly drawn) : 128

Proceeding to the next compound to report its Emax.
Provide Emax value for the following compound: CC[C@@H]1C2C[C@H](O)CC[C@]2(C)C2CC[C@@]3(C)C(CC[C@@H]3[C@H](C)Cc3nc(=O)o[nH]3)C2[C@@H]1O (stereo partly drawn) 165

====

# Tested System: TGR5 (Homo sapiens, UniProt Q8TDU6)
# Sequence (Q8TDU6 whole entry): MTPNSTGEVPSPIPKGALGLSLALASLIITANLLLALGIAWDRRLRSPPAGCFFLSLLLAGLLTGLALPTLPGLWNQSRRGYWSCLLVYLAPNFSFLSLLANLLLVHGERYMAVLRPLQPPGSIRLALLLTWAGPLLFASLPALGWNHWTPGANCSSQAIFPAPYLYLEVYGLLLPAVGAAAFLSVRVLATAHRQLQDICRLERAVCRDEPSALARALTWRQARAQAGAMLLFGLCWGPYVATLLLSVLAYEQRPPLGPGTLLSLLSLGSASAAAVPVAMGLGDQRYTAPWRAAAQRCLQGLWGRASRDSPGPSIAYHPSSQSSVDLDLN
# Test Details: TGR5 activity: intracellular cAMP levels, NCI-H716 cells (HTR-FRET)
# Format: cell-based
# Parameters: endogenous in cells; host or cells: NCI-H716
# Condition Context: NCI-H716 cells, cAMP
# Protocol: Activation of TGR5 was assessed by measuring the level of cAMP using an HTR-FRET assay. Thus, NCI-H716 cells were cultured on 96-well plates coated with Matrigel (Corning, USA) (0.75 mg/ml) in DMEM supplemented with 10% FCS, 100 units/ml penicillin, and 100 μg/ml streptomycin sulphate. […] The level of intracellular cAMP was determined with Lance kit. Z′ factor was used to validate assays.
Measure: pEC50
One number for each entry, as −log10 of the molar value.

Sample answers from the record:
CC[C@H]1[C@@H](O)C2C3CC[C@H]([C@H](C)CC(=O)NCCO)[C@@]3(C)CCC2[C@@]2(C)CC[C@@H](O)C[C@@H]12 (some centres unmarked) : 6.80
CC[C@H]1[C@@H](O)C2C3CC[C@H]([C@H](C)CCc4nn[nH]n4)[C@@]3(C)CCC2[C@@]2(C)CC[C@@H](O)C[C@@H]12 (some centres unmarked) : 5.30
CC[C@H]1[C@@H](O)C2C3CC[C@H]([C@H](C)CCc4nn[nH]n4)[C@@]3(C)[C@@H](O)CC2[C@@]2(C)CC[C@@H](O)C[C@@H]12 (some centres unmarked) : 5.40
CC[C@H]1[C@@H](O)[C@@H]2[C@H](C[C@H](O)[C@]3(C)[C@@H]([C@H](C)C[C@@H](O)C(=O)O)CC[C@@H]23)[C@@]2(C)CC[C@@H](O)C[C@@H]12 : 4.92

Consider now this further compound.
Specify pEC50 for CC[C@H]1[C@@H](O)[C@@H]2[C@H](CC[C@]3(C)[C@@H]([C@H](C)CCc4nc(=O)o[nH]4)[C@@H](O)C[C@@H]23)[C@@]2(C)CC[C@@H](O)C[C@@H]12 and stop. 5.74

====

Would you mind telling me the reported CMC of each entry?
# Test Details: Critical micellar concentration (surface tension / dye solubilization)
# Format: physicochemical
# Condition Context: BA sodium salts in 0.1 M NaCl, 25° C.
Answers are plain numbers, in mM.

Each compound below has a recorded value; state its CMC.
1. C[C@H](CCC(=O)O)[C@H]1CC[C@H]2[C@@H]3[C@H](O)C[C@@H]4C[C@H](O)CC[C@]4(C)[C@H]3CC[C@]12C [CDCA, chenodeoxycholic acid, reference compound]
2. CC[C@H]1[C@@H](O)[C@@H]2[C@H](C[C@H](O)[C@]3(C)[C@@H]([C@H](C)C[C@H](F)C(=O)O)CC[C@@H]23)[C@@]2(C)CC[C@@H](O)C[C@@H]12 [Compound 8]
3. CC[C@H]1[C@@H](O)C2C3CC[C@H]([C@H](C)C[C@H](C)C(=O)O)[C@@]3(C)[C@@H](O)CC2[C@@]2(C)CC[C@@H](O)C[C@@H]12 (some centres unmarked) [Ref. Cmpd. A, reference compound]

[3.2, 6, 2]

Hey, quick one: what's CMC for each of these?
1. CC[C@H]1[C@@H](O)C2C3CC[C@H]([C@H](C)CC(=O)NCCOS(=O)(=O)[O-])[C@@]3(C)CCC2[C@@]2(C)CC[C@@H](O)C[C@@H]12.[Na+] (some centres unmarked) [Compound 21]
2. CC[C@H]1[C@@H](O)[C@@H]2[C@H](C[C@H](O)[C@]3(C)[C@@H]([C@H](C)C[C@@H](F)C(=O)O)CC[C@@H]23)[C@@]2(C)CC[C@@H](O)C[C@@H]12 [Compound 9]

4
6
